- assay target: T1, human IL-18BP (human, UniProt O95998 31-194)
- T1 construct: UniProt printed as 095998; also called hIL-18BP
- T1 sequence: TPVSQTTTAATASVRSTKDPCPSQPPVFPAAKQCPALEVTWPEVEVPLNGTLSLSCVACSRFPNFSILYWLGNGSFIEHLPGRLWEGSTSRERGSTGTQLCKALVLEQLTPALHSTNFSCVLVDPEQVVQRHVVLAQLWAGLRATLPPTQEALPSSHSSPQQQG
- test protocol: BLI, apparent KD
API: label(entry) gives met if the entry's Kd is strictly smaller than 2 nM; on equality or larger values it gives not met.

- SA301a HC-S98N (antibody, name in Kabat numbering, V domains shown, IgG1 kappa) VH: QVQLQESGPGLVKPSQTLSLTCTVSGYSITSDYNSHWIRQPPGKGLEWIGYIHYSGSTNYNPSLKSRVTISRDTSKNQFSLKLSSVTAADTAVYYCARNYGNIYVNYFDYWGQGTLVTVSS VL: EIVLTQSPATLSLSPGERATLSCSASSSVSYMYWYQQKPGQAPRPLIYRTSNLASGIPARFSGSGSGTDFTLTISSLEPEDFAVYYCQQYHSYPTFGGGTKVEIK: not met
- SA301a HC-Y96V (antibody, name in Kabat numbering, V domains shown, IgG1 kappa) VH: QVQLQESGPGLVKPSQTLSLTCTVSGYSITSDYNSHWIRQPPGKGLEWIGYIHYSGSTNYNPSLKSRVTISRDTSKNQFSLKLSSVTAADTAVYYCARNVGSIYVNYFDYWGQGTLVTVSS VL: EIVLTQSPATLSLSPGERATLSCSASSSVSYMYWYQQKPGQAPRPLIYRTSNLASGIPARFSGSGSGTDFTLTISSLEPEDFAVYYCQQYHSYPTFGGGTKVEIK: met
- SA301a HC-S98I (antibody, name in Kabat numbering, V domains shown, IgG1 kappa) VH: QVQLQESGPGLVKPSQTLSLTCTVSGYSITSDYNSHWIRQPPGKGLEWIGYIHYSGSTNYNPSLKSRVTISRDTSKNQFSLKLSSVTAADTAVYYCARNYGIIYVNYFDYWGQGTLVTVSS VL: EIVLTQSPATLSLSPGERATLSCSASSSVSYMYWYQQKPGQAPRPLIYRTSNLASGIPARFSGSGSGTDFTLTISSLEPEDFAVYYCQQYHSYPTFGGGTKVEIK: not met
- SA301a HC-G97T (antibody, name in Kabat numbering, V domains shown, IgG1 kappa) VH: QVQLQESGPGLVKPSQTLSLTCTVSGYSITSDYNSHWIRQPPGKGLEWIGYIHYSGSTNYNPSLKSRVTISRDTSKNQFSLKLSSVTAADTAVYYCARNYTSIYVNYFDYWGQGTLVTVSS VL: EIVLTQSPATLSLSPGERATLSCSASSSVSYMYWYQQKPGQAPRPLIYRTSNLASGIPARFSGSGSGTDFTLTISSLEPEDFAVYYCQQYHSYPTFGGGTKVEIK: met

Turning now to a further record.
Data request: Dear colleague, could you confirm whether Kd of SA301a HC-G97R (antibody, name in Kabat numbering, V domains shown, IgG1 kappa) VH: QVQLQESGPGLVKPSQTLSLTCTVSGYSITSDYNSHWIRQPPGKGLEWIGYIHYSGSTNYNPSLKSRVTISRDTSKNQFSLKLSSVTAADTAVYYCARNYRSIYVNYFDYWGQGTLVTVSS VL: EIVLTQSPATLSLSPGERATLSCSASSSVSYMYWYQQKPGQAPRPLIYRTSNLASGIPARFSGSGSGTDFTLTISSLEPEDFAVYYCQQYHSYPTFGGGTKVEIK falls below 2 nM? Thanks.
Data returned: not met
